experiment: Human HepG2 cell viability assay in 384 well format; assay type: toxicity, cell-based; parameters: dose 125 nL, time 70.5 hour; concentration not given beside the values; conditions: HepG2 cells, read-out: Inhibition
measurement.name: cytotoxicity at 70.5 h (%)
Write down the numeric answer in % and omit the unit.

cytotoxicity at 70.5 h for CC[C@@]1(O)CCN(C(=O)c2ccc(SC)cc2)C[C@H]1O is 0.602

cytotoxicity at 70.5 h for Cc1ccc(NC2CCN(C(=O)CCc3ccccc3)CC2)nn1 is -6.29

cytotoxicity at 70.5 h for CN(Cc1cc(C(C)(C)C)n[nH]1)C(=O)c1c[nH]nc1-c1cccc(F)c1 is -8

cytotoxicity at 70.5 h for Cc1ccccc1SC1CCN(C(=O)C2CNC(=O)N2)CC1 (centres undefined) is 2.9

cytotoxicity at 70.5 h for O=C(c1ccno1)N1CCn2cc(CN3CCCCC3)nc2C1 is -2.37

cytotoxicity at 70.5 h for Cn1nc(Cn2ccnc2)c2c1CN(c1nccs1)C2 is -5.95

cytotoxicity at 70.5 h for NS(=O)(=O)CC1CCCN(C(=O)CCCC2CCCC2)C1 (centres undefined) is -12.7

cytotoxicity at 70.5 h for CCc1nc(CN(C(C)=O)C2CCN(Cc3csc(C)n3)C2)no1 (centres undefined) is -2.47

cytotoxicity at 70.5 h for CN1CCN(c2ncccn2)CC(C(=O)N(C)C)C1 (centres undefined) is -5.5

cytotoxicity at 70.5 h for Cc1nc(C)n(CC2CCCN(CC(=O)Nc3cccnc3)C2)n1 (centres undefined) is -0.663

cytotoxicity at 70.5 h for COCCN1CCC(CN(CC2CCCO2)C(=O)COC)CC1 (centres undefined) is 13.8

cytotoxicity at 70.5 h for Cc1nn(C)c(Cl)c1C1CCCN1C(=O)c1cnn(C)c1C1CC1 (centres undefined) is -14.5

cytotoxicity at 70.5 h for CC(C)N1CC(C(=O)N2CCC(Oc3ccccc3Cl)CC2)CC1=O (centres undefined) is -0.961

cytotoxicity at 70.5 h for COc1cccc(-c2nc(CC(=O)NC3(C)CCS(=O)(=O)C3)cs2)c1 (centres undefined) is -8.05

cytotoxicity at 70.5 h for CCC(CC)C(=O)N(C)CC(=O)Nc1ccc(Br)cn1 is -1.35

cytotoxicity at 70.5 h for COc1ccc(OC)c(C2CCN(c3ccc4cc[nH]c4n3)C2)c1 (centres undefined) is -6.46

cytotoxicity at 70.5 h for Cc1[nH]c2ccccc2c1-c1ccnc(N[C@H](CO)CC(C)C)n1 is -2.73

cytotoxicity at 70.5 h for NC(=O)CCOc1nc(-c2ccccc2Cl)no1 is 16.5

cytotoxicity at 70.5 h for CC(C)Nc1ncnc2c1CCN(C(=O)Cc1cccs1)CC2 is -7.55

cytotoxicity at 70.5 h for CN(Cc1ccsc1)C(=O)C1CCC(=O)N(Cc2ccccn2)C1 (centres undefined) is -5.03

cytotoxicity at 70.5 h for CC(NC(=O)CCOc1ccc(F)cc1)c1nnc2n1CCCCC2 (centres undefined) is 5.98

cytotoxicity at 70.5 h for CCNC(=O)N1CCC(n2ccc(C(F)(F)F)n2)CC1 is 38.9

cytotoxicity at 70.5 h for O=C(c1ccno1)N1CCOC[C@H](Oc2ccccc2)C1 is -3.41

cytotoxicity at 70.5 h for Cc1ccc(NC(=O)N2CCC3(CCC(C(=O)N(C)C)O3)CC2)cc1 (centres undefined) is -4.12
